- Protocol text: counter assay for TAg ATPase ADP read-out – biochemical, ADP-Hunter, fluorescence, counter-screen (AID 2501);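 further: purified T antigen ATPase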
- Setup conditions: series mostly up to 100 µM
The campaign covered roughly 2,200 compounds. About 1,200 (55%) were called active. Cut-off not given; nearly all actives show IC50 up to about 92 µM. So high a share suggests a set chosen from earlier hits. This is one part of the list.
Could you please pick one outcome from this set? 1 (yes) = active, 0 (no) = inactive

Just curious, what result did CC1=C(C#N)c2nc(N)c(C#N)c(C)c2/C1=C\c1ccc(OCC(=O)O)c(Cl)c1 get here? 1 (yes)

Hi team, can someone confirm the assay call for O=C(N/N=C/c1ccc(O)cc1O)/C(=C/c1ccccc1)CCO ? 1 (yes)

Which outcome was assigned to Cc1ccc(/C=N/N2C(=O)c3ccccc3NC2c2ccc(C)cc2)cc1 (centres undefined) in this test? 0 (no)

How did this test come out for Cc1cccn2c(CN(C)CCC3CCCCO3)c(C(=O)N3CCCCC3)nc12 (centres undefined) ? 0 (no)

What did this assay record as the result for COc1cc(/C=C2\C(C)=C(C#N)c3nc(N)c(C#N)c(C)c32)ccc1OCC(=O)O ? 0 (no)

What did the test return for Cc1ccc(S(=O)(=O)N2[C@@H](c3ccc(Cl)cc3)C(C(=O)O)=CC[C@H]2c2ccc(Cl)cc2)cc1 ? 0 (no)

Which result was noted for this compound in the test: COc1ccc(NC(=O)CN(C)C(=O)CCc2nc3cc(S(=O)(=O)N4CCOCC4)ccc3n2C)cc1 0 (no)

Look up the recorded call for Cc1ccc(S(=O)(=O)N2CCN(CC(=O)N/N=C\c3ccc(O)c(O)c3)CC2)cc1 in this test. 1 (yes)

Assay result, entry O=S(=O)(c1ccc(NC(=S)N/N=C/c2ccc(O)c(O)c2)cc1)N1CCOCC1 — outcome? 1 (yes)

Measured values drawn from PubChem BioAssay AID2501 for this set.
